Biological target: Cathepsin G (Homo sapiens, UniProt P08311); further: in other assays of this panel Not Active means under 50% inhibition at 10 µM;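 further: inhibition of Cathepsin G enzyme activity, tested on an AMC-conjugated peptide substrate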
Sequence (P08311 whole entry): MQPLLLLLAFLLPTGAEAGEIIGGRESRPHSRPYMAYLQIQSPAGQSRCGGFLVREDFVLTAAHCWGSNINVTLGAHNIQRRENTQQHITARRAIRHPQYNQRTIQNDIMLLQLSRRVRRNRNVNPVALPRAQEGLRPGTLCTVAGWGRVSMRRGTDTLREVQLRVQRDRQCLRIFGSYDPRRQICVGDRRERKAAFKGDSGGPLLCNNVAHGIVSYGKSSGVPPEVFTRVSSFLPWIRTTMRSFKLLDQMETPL
Assay type: tissue-based
Settings: neutrophil
quantity-measured: IC50

Answered cases to consult:
- compound: "Cc1onc(-c2ccccc2Cl)c1C(=O)N[C@@H]1C(=O)N2[C@@H]1SC(C)(C)[C@@H]2C(=O)O"
  experimental-result: "Not Active"
- compound: "CCOC(=O)N1CCC(=C2c3ccc(Cl)cc3CCc3cccnc32)CC1"
  experimental-result: "Not Active"
- compound: "Cc1c(C)c2c(c(C)c1O)CCC(C)(COc1ccc(CC3SC(=O)NC3=O)cc1)O2 (centres undefined)"
  experimental-result: "Not Active"
- compound: "CC[C@]1(O)C[C@H]2CN(CCc3c([nH]c4ccccc34)[C@@](C(=O)OC)(c3cc4c(cc3OC)N(C=O)[C@H]3[C@@](O)(C(=O)OC)[C@H](OC(C)=O)[C@]5(CC)C=CCN6CC[C@]43[C@@H]65)C2)C1"
  experimental-result: "Not Active"
- compound: "CN(C)CCCN1c2ccccc2Sc2ccc(Cl)cc21"
  experimental-result: "Not Active"
- compound: "CC(=O)O[C@@]12CO[C@@H]1C[C@H](O)[C@@]1(C)C(=O)[C@H](O)C3=C(C)[C@@H](OC(=O)[C@H](O)[C@@H](NC(=O)OC(C)(C)C)c4ccccc4)C[C@@](O)([C@@H](OC(=O)c4ccccc4)[C@H]21)C3(C)C.O.O.O"
  experimental-result: "Not Active"

Ask: Give IC50 for the following compound: C1CCC(C(CC2CCCCN2)C2CCCCC2)CC1 (centres undefined)
Reply: Not Active

Ask: Tell us which IC50 value is on record for CNNCc1ccc(C(=O)NC(C)C)cc1
Reply: Not Active

Ask: Query IC50 for Cc1cc(C(C#N)c2ccc(Cl)cc2)c(Cl)cc1NC(=O)c1cc(I)cc(I)c1O (centres undefined)
Reply: Not Active

Ask: For the compound CSc1ccc(/C=C2/C(C)=C(CC(=O)O)c3cc(F)ccc32)cc1 [SULINDAC SULFIDE] , give its measured IC50 value.
Reply: Not Active

Ask: Provide measured IC50 value, entry: CC1=C2C(=CO[C@H](C)[C@H]2C)C(O)=C(C(=O)O)C1=O
Reply: Not Active

* * *

Biological target: Nitric oxide synthase, inducible (Mus musculus); further: in other assays of this panel Not Active means under 50% inhibition at 10 µM;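 further: inhibition of iNOS enzyme activity measured with L-arginine as substrate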
Sequence (P29477 whole entry): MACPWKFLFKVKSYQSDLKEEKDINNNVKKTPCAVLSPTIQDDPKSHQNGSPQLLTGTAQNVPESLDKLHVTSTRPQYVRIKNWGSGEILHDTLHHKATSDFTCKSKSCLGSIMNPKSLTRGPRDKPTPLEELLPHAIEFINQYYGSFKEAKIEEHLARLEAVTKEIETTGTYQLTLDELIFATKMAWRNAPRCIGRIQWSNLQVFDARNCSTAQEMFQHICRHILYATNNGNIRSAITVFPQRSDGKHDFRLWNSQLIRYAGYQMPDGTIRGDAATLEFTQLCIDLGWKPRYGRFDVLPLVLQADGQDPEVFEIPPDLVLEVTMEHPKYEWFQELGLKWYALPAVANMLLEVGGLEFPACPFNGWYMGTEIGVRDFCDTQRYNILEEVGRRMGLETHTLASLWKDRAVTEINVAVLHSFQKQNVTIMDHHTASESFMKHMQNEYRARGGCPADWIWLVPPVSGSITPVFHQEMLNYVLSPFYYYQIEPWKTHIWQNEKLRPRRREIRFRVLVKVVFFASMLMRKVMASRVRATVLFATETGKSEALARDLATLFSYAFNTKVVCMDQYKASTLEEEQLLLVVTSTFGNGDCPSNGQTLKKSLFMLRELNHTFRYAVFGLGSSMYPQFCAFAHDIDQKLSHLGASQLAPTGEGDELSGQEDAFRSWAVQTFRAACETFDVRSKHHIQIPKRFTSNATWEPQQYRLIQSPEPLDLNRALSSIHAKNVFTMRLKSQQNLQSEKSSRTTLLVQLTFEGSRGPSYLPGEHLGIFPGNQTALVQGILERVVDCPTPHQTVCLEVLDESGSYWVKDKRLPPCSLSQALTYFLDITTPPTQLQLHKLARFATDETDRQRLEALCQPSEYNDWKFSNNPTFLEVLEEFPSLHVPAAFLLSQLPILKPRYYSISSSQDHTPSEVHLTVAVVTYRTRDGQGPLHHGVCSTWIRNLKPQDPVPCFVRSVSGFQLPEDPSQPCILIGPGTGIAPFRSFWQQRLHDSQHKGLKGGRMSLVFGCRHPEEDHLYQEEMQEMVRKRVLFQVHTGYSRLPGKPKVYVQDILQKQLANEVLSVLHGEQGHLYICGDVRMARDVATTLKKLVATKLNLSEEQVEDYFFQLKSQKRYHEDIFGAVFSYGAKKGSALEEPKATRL
Parameters: species or system Escherichia coli
quantity-measured: IC50

These recorded examples may help you get a feel for the data.
- molecule: "N[C@@H](Cc1cc(I)c(Oc2ccc(O)c(I)c2)c(I)c1)C(=O)O"
  quantity-measured: "IC50"
  experimental-result: "Not Active"
- molecule: "NC1=NC(=O)C(c2ccccc2)O1 (stereo unspecified)"
  quantity-measured: "IC50"
  experimental-result: "Not Active"
- molecule: "OCCN(CCO)c1nc(N2CCCCC2)c2nc(N(CCO)CCO)nc(N3CCCCC3)c2n1"
  quantity-measured: "IC50"
  experimental-result: "Not Active"
- molecule: "Clc1cccc(Cl)c1NC1=NCCN1"
  quantity-measured: "IC50"
  experimental-result: "Not Active"
- molecule: "O=NN(CCCl)C(=O)NC1CCCCC1"
  quantity-measured: "IC50"
  experimental-result: "Not Active"

Attention now turns to another entry.
Ask: State its IC50: O=C(CCCN1CC=C(n2c(=O)[nH]c3ccccc32)CC1)c1ccc(F)cc1
Reply: Not Active
